- experimental.target: T1, Dimeric human CD48-mFc (human)
- T1 chain: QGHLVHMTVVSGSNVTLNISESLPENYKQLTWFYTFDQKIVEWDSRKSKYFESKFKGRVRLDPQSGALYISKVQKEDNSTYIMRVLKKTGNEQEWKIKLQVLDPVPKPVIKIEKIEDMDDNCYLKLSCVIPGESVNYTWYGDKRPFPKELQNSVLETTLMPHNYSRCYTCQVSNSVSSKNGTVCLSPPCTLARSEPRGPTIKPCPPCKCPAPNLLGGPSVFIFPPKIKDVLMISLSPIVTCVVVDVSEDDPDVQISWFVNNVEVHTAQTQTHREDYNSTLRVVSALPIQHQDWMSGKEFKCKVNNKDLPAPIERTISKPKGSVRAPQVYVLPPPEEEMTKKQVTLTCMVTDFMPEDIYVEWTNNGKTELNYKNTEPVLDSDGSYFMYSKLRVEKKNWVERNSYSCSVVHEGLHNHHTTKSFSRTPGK
- protocol: SPR (Biacore T100), 25 C, antibody captured by anti-Fc, dimeric CD48-mFc in solution
Decision: T½ beneath 10 h gives Criterion met; T½ meeting or exceeding 10 h gives Criterion not met.

# count of solved cases: 4
binder | group.label
H4H1763N (antibody, human IgG4, V domains shown, Human IgG4 Fc (prefix H4H)) VH: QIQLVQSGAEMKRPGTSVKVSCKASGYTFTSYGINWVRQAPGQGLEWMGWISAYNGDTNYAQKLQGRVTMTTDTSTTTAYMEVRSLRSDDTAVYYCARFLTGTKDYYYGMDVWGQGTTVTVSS VL: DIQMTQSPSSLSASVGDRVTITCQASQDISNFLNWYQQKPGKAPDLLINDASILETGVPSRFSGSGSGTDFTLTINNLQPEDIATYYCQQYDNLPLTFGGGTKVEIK | Criterion met
H2M1709N (antibody, mouse IgG2, V domains shown, Human variable domains, mouse IgG2 Fc (prefix H2M)) VH: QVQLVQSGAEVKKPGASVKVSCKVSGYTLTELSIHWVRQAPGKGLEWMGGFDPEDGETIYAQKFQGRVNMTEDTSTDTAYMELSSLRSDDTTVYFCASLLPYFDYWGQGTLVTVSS VL: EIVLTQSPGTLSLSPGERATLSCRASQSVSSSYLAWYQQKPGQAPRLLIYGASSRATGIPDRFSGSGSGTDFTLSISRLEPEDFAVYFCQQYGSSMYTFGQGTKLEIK | Criterion met
H2M1712N (antibody, mouse IgG2, V domains shown, Human variable domains, mouse IgG2 Fc (prefix H2M)) VH: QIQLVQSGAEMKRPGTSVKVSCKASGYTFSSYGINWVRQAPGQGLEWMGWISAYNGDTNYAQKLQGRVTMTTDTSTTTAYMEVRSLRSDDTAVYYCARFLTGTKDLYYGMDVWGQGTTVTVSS VL: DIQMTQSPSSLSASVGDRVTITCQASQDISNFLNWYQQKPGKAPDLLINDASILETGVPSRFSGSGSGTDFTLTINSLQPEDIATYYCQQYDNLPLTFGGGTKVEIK | Criterion met
H4H1770P (antibody, human IgG4, V domains shown, Human IgG4 Fc (prefix H4H)) VH: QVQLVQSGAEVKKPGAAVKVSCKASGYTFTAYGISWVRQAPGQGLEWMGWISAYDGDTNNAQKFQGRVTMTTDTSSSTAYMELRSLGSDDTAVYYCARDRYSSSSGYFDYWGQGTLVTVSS VL: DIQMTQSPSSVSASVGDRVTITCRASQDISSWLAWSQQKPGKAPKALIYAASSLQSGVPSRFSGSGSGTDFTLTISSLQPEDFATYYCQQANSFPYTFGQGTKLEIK | Criterion not met

Quick check: does H2M1811N (antibody, mouse IgG2, V domains shown, Human variable domains, mouse IgG2 Fc (prefix H2M)) VH: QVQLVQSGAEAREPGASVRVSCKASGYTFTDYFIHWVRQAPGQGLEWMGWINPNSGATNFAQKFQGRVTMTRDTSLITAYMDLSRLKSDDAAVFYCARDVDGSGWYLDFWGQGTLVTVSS VL: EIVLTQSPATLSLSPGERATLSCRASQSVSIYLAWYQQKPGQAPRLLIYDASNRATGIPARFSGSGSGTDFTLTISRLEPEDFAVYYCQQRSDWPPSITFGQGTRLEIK have T½ under 10 h?
Criterion met

Quick check: does H4H1771P (antibody, human IgG4, V domains shown, Human IgG4 Fc (prefix H4H)) VH: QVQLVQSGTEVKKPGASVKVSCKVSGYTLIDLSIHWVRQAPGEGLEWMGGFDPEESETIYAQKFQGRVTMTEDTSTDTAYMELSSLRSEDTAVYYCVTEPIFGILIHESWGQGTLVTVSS VL: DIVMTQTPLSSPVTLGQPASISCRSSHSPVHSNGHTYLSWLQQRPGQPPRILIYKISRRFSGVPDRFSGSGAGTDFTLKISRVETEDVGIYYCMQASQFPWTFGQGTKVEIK have T½ under 10 h?
Criterion not met
